tested on: KM12 colon; assay: NCI tumour cell line growth inhibition, 48 h
Exercise: state measured TGI for each of the molecules provided.

Sample Nc1ncnc2c1N=C(c1ccc3c(c1)OCO3)CC(c1ccc([N+](=O)[O-])cc1)N2 (stereo unspecified) , system: KM12 colon. Its TGI is > 100 µM

Recorded TGI for O=C1CCCCC1S(=O)(=O)c1ccccc1 (stereo unspecified) on KM12 colon was > 100 µM

Bench note, KM12 colon: entry `NC(=O)c1cccc([N+](=O)[O-])c1` , its TGI = > 100 µM

# value of TGI, KM12 colon, item `Cc1ccc(S(=O)(=O)n2c3ccc(Br)cc3c3nc4ccccc4nc32)cc1` = > 100 µM

Record `CCOc1cc2c(C(=O)CC)c(O)ccc2o1` has KM12 colon TGI equal to > 100 µM

The observed TGI for COC(=O)C1(Cc2ccc3c(c2)CCC3)Cc2ccccc2C1O (stereo unspecified) when tested with KM12 colon stands at 47.6 µM

Measured on KM12 colon, O=C1C=CC(=O)C2=C1[C@@H](O)C1CC=CC3C(=O)O[C@@H]2C31 (stereo partly specified) has a documented TGI of 41.2 µM

Considering CC(CN(C)C)/C(=N\Nc1ccccc1)c1ccccc1 (stereo unspecified) , its TGI with KM12 colon was recorded as 14.4 µM

# O=C1NC(=O)C(C(CC(=O)c2ccc([N+](=O)[O-])cc2)c2ccccc2)C(=O)N1 (stereo unspecified) with KM12 colon: TGI is 30.4 µM

`Cc1ccc(/C(O)=C/c2nc3ccccc3sc2=O)c(C)c1` tested on KM12 colon gave TGI: > 100 µM

Readout TGI for `CSc1nnc(CCC(=O)Nc2c(C)cccc2C)o1` , test system KM12 colon, was > 100 µM

---

test system: SF-539 CNS; experiment: NCI tumour cell line growth inhibition, 48 h; in the data active = GI50 below about 0.43 µM; inactive = the rest
Returns: one label drawn from active, inactive

Query :: Kindly provide the recorded test outcome for the following compound: O=C1OCC2=C1C(c1cccc(Cl)c1)c1cc3c(cc1N2CCO)OCCO3 (stereo not given)
Result :: active

Query :: What outcome does the record of this test show for `CCCCOC(=O)N1CCN(/[N+]([O-])=N/Oc2ccc([N+](=O)[O-])cc2[N+](=O)[O-])CC1` ?
Result :: inactive

Query :: Which outcome was assigned to `CC1=C(c2cccc(O)c2)[C@H](c2ccc(OCCN3CC(CF)C3)cc2)Oc2ccc(O)cc21` in this test?
Result :: inactive

Query :: Test call, this compound: `O=C1c2cc3c(cc2[C@@H]2[C@H]1c1ccc([N+](=O)[O-])cc1C(=O)N2CCCBr)OCO3`
Result :: active

Query :: GET /call?item= Cc1ccccc1OCC(O)CN1CCN(c2ccc(Cl)cc2)CC1 (stereo not given) returns the recorded outcome of this test.
Result :: inactive

Query :: Entry `Cc1cc(F)ccc1S(=O)(=O)Nc1cc(-c2c(O)ccc3ccccc23)c(O)c2ccccc12` : call = ?
Result :: inactive

Query :: Given Nc1ncnc2c1N=C(c1ccc3c(c1)OCO3)CC(c1ccc([N+](=O)[O-])cc1)N2 (stereo not given) , state the outcome it received in this test.
Result :: inactive

Query :: What was the test verdict on `NS(=O)(=O)c1ccc(/C=C/c2ccc(F)cc2)cc1` ?
Result :: inactive

Query :: Could you kindly confirm the outcome this assay logged for `O=C(Nc1cccc(-n2cc(-c3ccncc3)c(-c3ccc(Cl)c(O)c3)n2)c1)Nc1cc(C(F)(F)F)cc(C(F)(F)F)c1` ?
Result :: inactive

Query :: Please let me know the test result on file for `O=C(Nc1ccc(Br)cc1F)c1cc(I)ccc1O` .
Result :: inactive

Query :: How was `Cc1cc(NCCCN(C)C)c2ccc3c(ccc4c(NCCCN(C)C)cc(C)nc43)c2n1` classified in this test?
Result :: active

Query :: Write down the call the test reported for this compound. Item: `COc1cc2nc(N3CCCC3)nc(NCc3ccccc3)c2cc1OC`
Result :: inactive

Query :: Returns: the outcome recorded for `O=C1C(Nc2ccc(Cl)cc2)=C(I)C(=O)c2ncccc21` in this assay.
Result :: inactive

Query :: Returns: the outcome recorded for CC1(C)C2CCC13C(=O)C1OC3(C2)C2C(=O)c3ccccc3C(=O)C12 (stereo not given) in this assay.
Result :: inactive
